Tested on: SKOV-3 cell line
Assay: In vitro cell viability assay of FA-CDCs (CellTiter-Glo2.0)
Assay type: cell-based
Settings: FA ligands per particle 12-22; linker-drug conjugates per particle 17-25; read-out: IC50 inSKOV-3 cell line (+++)
reported-property: IC50 (nM)
One number for each entry, in nM.

| compound | units-of-measure | IC50 |
| --- | --- | --- |
| CC[C@@]1(O)C(=O)OCc2c1cc1n(c2=O)Cc2c-1nc1cc(F)c(C)c3c1c2[C@@H](NC(=O)OCc1ccc(NC(=O)[C@H](CCCCN)NC(=O)[C@H](Cc2ccccc2)NC(=O)CCOCCOCCOCCOCCOCCOCCOCCOCCOCCN=[N+]=[N-])cc1)CC3 (single isomer, unassigned) | nM | 0.4 |

Could you tell me which IC50 is on file for CC[C@@]1(O)C(=O)OCc2c1cc1n(c2=O)Cc2c-1nc1cc(F)c(C)c3c1c2[C@@H](NC(=O)OCc1ccc(NC(=O)[C@H](CCCNC(N)=O)NC(=O)[C@@H](NC(=O)CCOCCOCCOCCOCCOCCOCCOCCOCCOCCN=[N+]=[N-])C(C)C)cc1)CC3 ?
10.7
